Just for reference, the NIST ThermoML archive (doi:10.1021/je900407u) is where these values come from.

# key: entry, value: isobaric coefficient of expansion
Assay: isobaric coefficient of expansion
Conditions: 278.15 K; 20000 kPa; Liquid; Micro DSCII

Below are worked cases with known answers.
[
  {
    "Compound": "CCCC[n+]1ccn(C)c1.O=S(=O)([N-]S(=O)(=O)C(F)(F)F)C(F)(F)F",
    "isobaric coefficient of expansion": "0.000643 1/K"
  },
  {
    "Compound": "CCCCn1cc[n+](C)c1.[F][Sb-]([F])([F])([F])([F])[F] [1-butyl-3-methylimidazolium hexafluoroantimonate]",
    "isobaric coefficient of expansion": "0.000614 1/K"
  },
  {
    "Compound": "CCCCn1cc[n+](C)c1.O=S(=O)([O-])C(F)(F)F [1-butyl-3-methylimidazolium trifluoromethanesulfonate]",
    "isobaric coefficient of expansion": "0.000599 1/K"
  },
  {
    "Compound": "CCCCn1cc[n+](C)c1.COS(=O)(=O)[O-] [1-butyl-3-methylimidazolium methyl sulfate]",
    "isobaric coefficient of expansion": "0.000545 1/K"
  }
]

Could you now consider this next compound?
Given the entry CCCCn1cc[n+](C)c1.F[B-](F)(F)F [1-butyl-3-methylimidazolium tetrafluoroborate] , report its measured isobaric coefficient of expansion. 0.000586 1/K
